Molecular target: T1, human interleukin-23 receptor (IL23R) (human, UniProt Q5VWK5 24-355, limits assumed)
T1 construct: also called human IL23R
T1 sequence (looked up): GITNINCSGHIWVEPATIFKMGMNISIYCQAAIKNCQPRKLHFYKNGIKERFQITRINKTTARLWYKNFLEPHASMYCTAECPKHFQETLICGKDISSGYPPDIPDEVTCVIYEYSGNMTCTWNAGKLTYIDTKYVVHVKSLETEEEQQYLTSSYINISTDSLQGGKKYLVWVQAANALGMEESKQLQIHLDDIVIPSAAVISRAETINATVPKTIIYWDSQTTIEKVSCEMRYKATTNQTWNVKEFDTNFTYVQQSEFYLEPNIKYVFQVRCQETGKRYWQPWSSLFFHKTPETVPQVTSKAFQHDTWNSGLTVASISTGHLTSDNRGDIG
Assay: SPR, scFv
Recorded Endpoint: pKd
Numbers only, as −log10 of the molar value.

Here's what some known entries look like.
According to the records, this binder Vκ2/VH6 consensus (uncapped), human IL23R specific scFv (scFv, scFv VL-linker-VH, made in E. coli; Vκ framework IV (uncapped, full consensus); also called Vκ2VH6 uncapped) scFv: DIVMTQSPLSLPVTPGEPASISCQASENIYSFLAWYLQKPGQSPQLLIYSASKLAAGVPDRFSGSGSGTDFTLKISRVEAEDVGVYYCQQTNRYSNPDIYNVFGQGTKVEIKRGGGGSGGGGSGGGGSGGGGSQVQLQQSGPGLVKPSQTLSLTCAISGIDFNSNYYMCWIRQSPGRGLEWLGCIYVGSHVNTYYANWAKGRITINPDTSKNQFSLQLNSVTPEDTAVYYCATSGSSVLYFKFWGQGTLVTVSS displays pKd of 8.49

response.value for Vκ3/VH2 consensus λ-capped, human IL23R specific scFv (scFv, scFv VL-linker-VH, made in E. coli; also called Vκ3VH2 capped) scFv: DIVLTQSPATLSLSPGERATLSCQASENIYSFLAWYQQKPGQAPRLLIYSASKLAAGVPARFSGSGSGTDFTLTISSLEPEDFAVYYCQQTNRYSNPDIYNVFGGGTKLTVLGGGGGSGGGGSGGGGSGGGGSQVQLKESGPALVKPTQTLTLTCTFSGIDFNSNYYMCWIRQPPGKALEWLACIYVGSHVNTYYANWAKGRLTISKDTSKNQVVLTMTNMDPVDTATYYCATSGSSVLYFKFWGQGTLVTVSS (field: pKd) = 10.04

---
// pKd value for Vκ3/VH3 consensus λ-capped, human IL23R specific scFv (scFv, scFv VL-linker-VH, made in E. coli; also called Vκ3VH3 capped) scFv: DIVLTQSPATLSLSPGERATLSCQASENIYSFLAWYQQKPGQAPRLLIYSASKLAAGVPARFSGSGSGTDFTLTISSLEPEDFAVYYCQQTNRYSNPDIYNVFGGGTKLTVLGGGGGSGGGGSGGGGSGGGGSEVQLVESGGGLVQPGGSLRLSCAASGIDFNSNYYMCWVRQAPGKGLEWVSCIYVGSHVNTYYANWAKGRFTISRDNSKNTLYLQMNSLRAEDTAVYYCATSGSSVLYFKFWGQGTLVTVSS : 10.66
